Entry source: patent US10457709B2

System: Candida albicans clinical strains
procedure-text: MIC, clinical yeast strains
Type: cell-based
Set-up: unit: μg/ml
measurement-setup: Candida albicans clinical yeast strain 3
Square brackets hold non-standard residues; d marks the D form. Peptide text beside a SMILES is read from it.
readout-name: Minimum inhibitory concentration

INSERT INTO results (compound, target_of_assay, readout_name, result_number) VALUES
  ('CC(C)C[C@@H](NC(=O)[C@@H](CCCCN)NC(=O)[C@@H](CCCCN)NC(=O)[C@@H](Cc1ccccc1)NC(=O)[C@@H](CC(C)C)NC(=O)[C@@H](Cc1c[nH]c2ccccc12)NC(=O)[C@@H](CCCNC(=N)N)NC(=O)[C@@H](Cc1c[nH]c2ccccc12)NC(=O)[C@@H](CCCCN)NC(=O)[C@@H](CCCNC(=N)N)NC(=O)[C@H](N)CCCCN)C(=O)O [Chain310D] (H-[dK][dR][dK][dW][dR][dW][dL][dF][dK][dK][dL]-OH)', 'Candida albicans clinical strains', 'Minimum inhibitory concentration', 16),
  ('CC(C)C[C@@H](NC(=O)[C@@H](CCCCN)NC(=O)[C@@H](Cc1c[nH]c2ccccc12)NC(=O)[C@@H](CCCCN)NC(=O)[C@@H](C)NC(=O)[C@@H](Cc1c[nH]cn1)NC(=O)[C@@H](CC(C)C)NC(=O)[C@@H](CCCNC(=N)N)NC(=O)[C@@H](Cc1c[nH]c2ccccc12)NC(=O)[C@H](N)Cc1c[nH]c2ccccc12)C(=O)N[C@H](Cc1c[nH]c2ccccc12)C(=O)O [Chain109D] (H-[dW][dW][dR][dL][dH][dA][dK][dW][dK][dL][dW]-OH)', 'Candida albicans clinical strains', 'Minimum inhibitory concentration', 128),
  ('CC[C@@H](C)[C@@H](N)C(=O)N[C@H](Cc1c[nH]c2ccccc12)C(=O)N[C@H](CCCCN)C(=O)N[C@H](CCCNC(=N)N)C(=O)N[C@H](Cc1ccccc1)C(=O)N[C@H](CCCNC(=N)N)C(=O)N[C@H](CC(C)C)C(=O)N[C@H](Cc1ccccc1)C(=O)N[C@H](CCCCN)C(=O)N[C@H](CCCCN)C(=O)N[C@H](Cc1c[nH]c2ccccc12)C(=O)O [Chain304D] (H-[dI][dW][dK][dR][dF][dR][dL][dF][dK][dK][dW]-OH)', 'Candida albicans clinical strains', 'Minimum inhibitory concentration', 16),
  ('CC(C)C[C@@H](NC(=O)[C@H](N)CCCNC(=N)N)C(=O)N[C@H](CCCCN)C(=O)N[C@H](CCCNC(=N)N)C(=O)N[C@H](Cc1c[nH]c2ccccc12)C(=O)N[C@H](CCCNC(=N)N)C(=O)N[C@H](CC(C)C)C(=O)N[C@H](Cc1ccccc1)C(=O)N[C@H](CCCNC(=N)N)C(=O)N[C@H](CCCCN)C(=O)N[C@H](CCCNC(=N)N)C(=O)O [Chain306D] (H-[dR][dL][dK][dR][dW][dR][dL][dF][dR][dK][dR]-OH)', 'Candida albicans clinical strains', 'Minimum inhibitory concentration', 8),
  ('CC(C)C[C@@H](NC(=O)[C@H](N)CCCNC(=N)N)C(=O)N[C@H](CCCCN)C(=O)N[C@H](Cc1c[nH]c2ccccc12)C(=O)N[C@H](Cc1ccccc1)C(=O)N[C@H](CC(C)C)C(=O)N[C@H](CC(C)C)C(=O)N[C@H](Cc1ccccc1)C(=O)N[C@H](CCCNC(=N)N)C(=O)N[C@H](CCCCN)C(=O)N[C@H](CCCNC(=N)N)C(=O)O [Chain308D] (H-[dR][dL][dK][dW][dF][dL][dL][dF][dR][dK][dR]-OH)', 'Candida albicans clinical strains', 'Minimum inhibitory concentration', 16),
  ('CC(C)C[C@@H](NC(=O)[C@H](N)CCCCN)C(=O)N[C@H](CCCCN)C(=O)N[C@H](Cc1c[nH]c2ccccc12)C(=O)N[C@H](Cc1ccccc1)C(=O)N[C@H](Cc1c[nH]c2ccccc12)C(=O)N[C@H](CC(C)C)C(=O)N[C@H](Cc1ccccc1)C(=O)N[C@H](CCCCN)C(=O)N[C@H](CCCCN)C(=O)N[C@H](CCCNC(=N)N)C(=O)O [Chain311D] (H-[dK][dL][dK][dW][dF][dW][dL][dF][dK][dK][dR]-OH)', 'Candida albicans clinical strains', 'Minimum inhibitory concentration', 8),
  ('CC[C@@H](C)[C@@H](NC(=O)[C@@H](Cc1c[nH]c2ccccc12)NC(=O)[C@H](N)CCCCN)C(=O)N[C@@H](C(=O)N[C@H](Cc1c[nH]c2ccccc12)C(=O)N[C@H](CCCNC(=N)N)C(=O)N[C@H](Cc1c[nH]c2ccccc12)C(=O)N[C@H](CCCNC(=N)N)C(=O)N[C@H](Cc1ccccc1)C(=O)N[C@H](CCCCN)C(=O)N[C@H](CCCNC(=N)N)C(=O)O)C(C)C [Chain201D] (H-[dK][dW][dI][dV][dW][dR][dW][dR][dF][dK][dR]-OH)', 'Candida albicans clinical strains', 'Minimum inhibitory concentration', 8),
  ('CC(C)C[C@@H](NC(=O)[C@@H](Cc1c[nH]c2ccccc12)NC(=O)[C@@H](Cc1ccccc1)NC(=O)[C@@H](Cc1c[nH]c2ccccc12)NC(=O)[C@@H](CCCCN)NC(=O)[C@@H](CCCNC(=N)N)NC(=O)[C@H](N)Cc1c[nH]c2ccccc12)C(=O)N[C@H](Cc1ccccc1)C(=O)N[C@H](CCCCN)C(=O)N[C@H](CCCCN)C(=O)N[C@H](CCCNC(=N)N)C(=O)O [Chain309D] (H-[dW][dR][dK][dW][dF][dW][dL][dF][dK][dK][dR]-OH)', 'Candida albicans clinical strains', 'Minimum inhibitory concentration', 16),
  ('C[C@@H]1[C@H](O)[C@@H](C)/C=C/C=C/C=C/C=C/C=C/C=C/C=C/[C@H](O[C@@H]2O[C@H](C)[C@@H](O)[C@H](N)[C@@H]2O)C[C@@H]2O[C@](O)(C[C@@H](O)C[C@@H](O)[C@H](O)CC[C@@H](O)C[C@@H](O)CC(=O)O[C@H]1C)C[C@H](O)[C@H]2C(=O)O', 'Candida albicans clinical strains', 'Minimum inhibitory concentration', 2),
  ('CC[C@@H](C)[C@@H](NC(=O)[C@@H](CC(C)C)NC(=O)[C@@H](CCCNC(=N)N)NC(=O)[C@H](N)CCCNC(=N)N)C(=O)N[C@H](Cc1c[nH]c2ccccc12)C(=O)N[C@H](CCCNC(=N)N)C(=O)N[C@H](CCCNC(=N)N)C(=O)N[C@H](Cc1ccccc1)C(=O)N[C@H](CCCCN)C(=O)N[C@H](Cc1c[nH]c2ccccc12)C(=O)N[C@H](CC(C)C)C(=O)N[C@H](CCCNC(=N)N)C(=O)O [Chain204D] (H-[dR][dR][dL][dI][dW][dR][dR][dF][dK][dW][dL][dR]-OH)', 'Candida albicans clinical strains', 'Minimum inhibitory concentration', 8),
  ('CC(C)C[C@@H](NC(=O)[C@H](N)CCCNC(=N)N)C(=O)N[C@H](CCCCN)C(=O)N[C@H](Cc1c[nH]c2ccccc12)C(=O)N[C@H](Cc1ccccc1)C(=O)N[C@H](Cc1c[nH]c2ccccc12)C(=O)N[C@H](CC(C)C)C(=O)N[C@H](Cc1ccccc1)C(=O)N[C@H](CCCNC(=N)N)C(=O)N[C@H](CCCCN)C(=O)N[C@H](CCCNC(=N)N)C(=O)O [Chain307D] (H-[dR][dL][dK][dW][dF][dW][dL][dF][dR][dK][dR]-OH)', 'Candida albicans clinical strains', 'Minimum inhibitory concentration', 16);

----------
System: Proteus mirabilis clinical strains
Type: cell-based
Parameters: unit: μg/ml
measurement-setup: Proteus mirabilis clinical strain 2; microdilution, Muller Hinton broth-cation adjusted, 0.02% BSA, 0.2% acetic acid
Square brackets hold non-standard residues; d marks the D form. Peptide text beside a SMILES is read from it.
Property: Minimum inhibitory concentration; scope: individual compounds
readout-name: Minimum inhibitory concentration

INSERT INTO results (compound, relation_symbol, result_number) VALUES
  ('CC(C)C[C@@H](NC(=O)[C@H](N)CCCNC(=N)N)C(=O)N[C@H](CCCCN)C(=O)N[C@H](CCCNC(=N)N)C(=O)N[C@H](Cc1c[nH]c2ccccc12)C(=O)N[C@H](CCCNC(=N)N)C(=O)N[C@H](CC(C)C)C(=O)N[C@H](Cc1ccccc1)C(=O)N[C@H](CCCNC(=N)N)C(=O)N[C@H](CCCCN)C(=O)N[C@H](CCCNC(=N)N)C(=O)O [Chain306D] (H-[dR][dL][dK][dR][dW][dR][dL][dF][dR][dK][dR]-OH)', '>', 128),
  ('CC(C)C[C@@H](NC(=O)[C@@H](CCCCN)NC(=O)[C@@H](CCCCN)NC(=O)[C@@H](Cc1ccccc1)NC(=O)[C@@H](CC(C)C)NC(=O)[C@@H](Cc1c[nH]c2ccccc12)NC(=O)[C@@H](CCCNC(=N)N)NC(=O)[C@@H](Cc1c[nH]c2ccccc12)NC(=O)[C@@H](CCCCN)NC(=O)[C@@H](CCCNC(=N)N)NC(=O)[C@H](N)CCCCN)C(=O)O [Chain310D] (H-[dK][dR][dK][dW][dR][dW][dL][dF][dK][dK][dL]-OH)', '>', 128),
  ('CC(C)C[C@@H](NC(=O)[C@H](N)CCCCN)C(=O)N[C@H](CCCCN)C(=O)N[C@H](Cc1c[nH]c2ccccc12)C(=O)N[C@H](Cc1ccccc1)C(=O)N[C@H](Cc1c[nH]c2ccccc12)C(=O)N[C@H](CC(C)C)C(=O)N[C@H](Cc1ccccc1)C(=O)N[C@H](CCCCN)C(=O)N[C@H](CCCCN)C(=O)N[C@H](CCCNC(=N)N)C(=O)O [Chain311D] (H-[dK][dL][dK][dW][dF][dW][dL][dF][dK][dK][dR]-OH)', '=', 128),
  ('CC(C)C[C@@H](NC(=O)[C@H](N)CCCNC(=N)N)C(=O)N[C@H](CCCCN)C(=O)N[C@H](Cc1c[nH]c2ccccc12)C(=O)N[C@H](Cc1ccccc1)C(=O)N[C@H](Cc1c[nH]c2ccccc12)C(=O)N[C@H](CC(C)C)C(=O)N[C@H](Cc1ccccc1)C(=O)N[C@H](CCCNC(=N)N)C(=O)N[C@H](CCCCN)C(=O)N[C@H](CCCNC(=N)N)C(=O)O [Chain307D] (H-[dR][dL][dK][dW][dF][dW][dL][dF][dR][dK][dR]-OH)', '=', 128);
